# Test system: 186277-243-T-J2-PDC complex spheroid viability;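 note: 7 day exposure to compounds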
# Protocol: Anticancer human tumor 186277-243-T-J2-PDC patient-derived colon adenocarcinoma cell line growth inhibition; active = viability on the fitted dose curve at most 10% of control; inactive = the rest
# Test Context: second compound 10 µM; first compound 1 µM
Give one outcome, nothing more. List: active, inactive

Solved cases below.
Nc1ncn(C2CC(O)C(CO)O2)c(=O)n1 (stereo not drawn) + NC1CCC(NC2CC2c2ccccc2)CC1	inactive
O=C(c1cc(Cc2n[nH]c(=O)c3ccccc23)ccc1F)N1CCN(C(=O)C2CC2)CC1 + NC1CCC(NC2CC2c2ccccc2)CC1	inactive
CC1COCCN1c1cc(C2(S(C)(=N)=O)CC2)nc(-c2ccnc3[nH]ccc23)n1 (stereo not drawn) + NC1CCC(NC2CC2c2ccccc2)CC1	inactive

Recorded test call requested for CC1COCCN1c1cc(C2(S(C)(=N)=O)CC2)nc(-c2ccnc3[nH]ccc23)n1 (stereo not drawn) + NC1CC1c1ccc(-c2cccc(O)c2)cc1
inactive

Recorded test call requested for CC(C)c1c(-c2ccccc2)nc2c(C#N)c[nH]n2c1=O + NC1CC1c1ccc(-c2cccc(O)c2)cc1
inactive

Recorded test call requested for O=C(c1cc(Cc2n[nH]c(=O)c3ccccc23)ccc1F)N1CCN(C(=O)C2CC2)CC1 + NC1CC1c1ccc(-c2cccc(O)c2)cc1
inactive

Recorded test call requested for COc1ccc([C@@H](O)c2cc(-c3ncnc4cc(N5CCOCC5)ccc34)c(F)cc2Cl)nn1 + NC1CCC(NC2CC2c2ccccc2)CC1
inactive

Recorded test call requested for O=C(C=Cn1cnc(-c2cc(C(F)(F)F)cc(C(F)(F)F)c2)n1)NNc1cnccn1 + NC1CC1c1ccc(-c2cccc(O)c2)cc1
active
